Reference source for all entries: patent US20180338980A1

Target: P2X4 (Homo sapiens)
Assay: Assay B: human P2X4 receptor cell line, mitochondrial photina luminescence (agonist Bz-ATP at EC50)
Format: cell-based
Parameters: host or cells: HEK 293 (recombinant, constitutively expressing; with mitochondrial photina in Assay B)
Details: HEK human P2X4 cell line, photina luminescence, agonist Bz-ATP at EC50, average
Procedure: The identification of agonists and antagonists of the P2X4 receptor from humans and […] also the quantification of the activity of the compounds of the invention was performed by use of recombinant cell lines. […] The test cell lines constitutively express the mouse or human P2X4 receptors. […] The strength of Fluo8 fluorescence signal or photina luminescence signal corresponds to the level of receptor activation. […] The resulting light signal is measured immediately in the luminometer.
pIC50: −log10 of the molar value.
measurement_label: pIC50

I. NS(=O)(=O)c1cc(NC(=O)Cc2ccccc2Cl)ccc1Oc1cccc(N2CCN(C(=O)Cc3ccccc3Cl)CC2)c1
II. NS(=O)(=O)c1cc(NC(=O)Cc2ccc(C(F)(F)F)cc2)ccc1Oc1ccccc1OC(F)(F)F
III. NS(=O)(=O)c1cc(NC(=O)Cc2c(Cl)cccc2C(F)(F)F)ccc1Oc1cccc(Cl)c1
IV. NS(=O)(=O)c1cc(NC(=O)Cc2ccccc2Cl)ccc1Oc1ccnc(Cl)c1
V. NS(=O)(=O)c1cc(NC(=O)Cc2ccccc2)ccc1OC1COC1
Using the list above, order everything by rising pIC50. Put the labels in the order asked and list them.
IV, II, V, I, III

1. C=C(C)c1ccccc1Oc1ccc(NC(=O)Cc2ccccc2Cl)cc1S(N)(=O)=O
2. NS(=O)(=O)c1cc(NC(=O)Cc2ccccc2Cl)ccc1OCC1CCCO1 (centres unmarked)
Sort 1 and 2 by pIC50 descending and give the first. Please indicate the selected item by its label.
1

* * *

biological target: P2X4 (Homo sapiens, UniProt Q99571); experiment: Assay A: human P2X4 receptor cell line, FLIPR calcium assay (Fluo-8, agonist Bz-ATP at EC80); format: cell-based; design: host or cells: HEK 293 (recombinant, constitutively expressing; with mitochondrial photina in Assay B); settings: percentage of maximal inhibition; HEK human P2X4 cells, Fluo-8 FLIPR; read-out: human P2X4 Assay A avg Efficacy
Sequence (Q99571 whole entry): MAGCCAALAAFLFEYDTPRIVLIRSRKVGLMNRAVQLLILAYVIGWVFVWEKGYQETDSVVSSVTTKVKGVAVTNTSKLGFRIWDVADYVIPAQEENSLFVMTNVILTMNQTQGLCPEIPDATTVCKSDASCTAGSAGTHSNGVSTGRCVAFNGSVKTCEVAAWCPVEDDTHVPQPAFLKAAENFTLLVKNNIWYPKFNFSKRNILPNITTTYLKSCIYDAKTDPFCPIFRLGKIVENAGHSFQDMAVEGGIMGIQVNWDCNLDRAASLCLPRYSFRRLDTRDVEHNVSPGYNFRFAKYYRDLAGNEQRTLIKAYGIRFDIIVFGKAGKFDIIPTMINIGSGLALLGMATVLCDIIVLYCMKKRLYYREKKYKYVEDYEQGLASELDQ
measurement_label: Emax (%)

- compound_structure_string: "NS(=O)(=O)c1cc(NC(=O)Cc2ccccc2F)cnc1Oc1cccc(Cl)c1"
  assay_system: "P2X4 (Homo sapiens, UniProt Q99571)"
  uom: "%"
  Emax: 67
- compound_structure_string: "NS(=O)(=O)c1cc(NC(=O)Cc2ccccc2Cl)ccc1Oc1cc(C(F)(F)F)c(Cl)cn1"
  assay_system: "P2X4 (Homo sapiens, UniProt Q99571)"
  uom: "%"
  Emax: 82
- compound_structure_string: "NS(=O)(=O)c1cc(NC(=O)Cc2ccccc2Cl)ccc1OCCc1cccc(Cl)c1"
  assay_system: "P2X4 (Homo sapiens, UniProt Q99571)"
  uom: "%"
  Emax: 81
- compound_structure_string: "NS(=O)(=O)c1cc(NC(=O)Cc2ccccc2Cl)ccc1Oc1cccc(N2CCOC2=O)c1"
  assay_system: "P2X4 (Homo sapiens, UniProt Q99571)"
  uom: "%"
  Emax: 87

* * *

target: UniProtKB Q99571; assay: Assay A: human P2X4 receptor cell line, FLIPR calcium assay (Fluo-8, agonist Bz-ATP at EC80); assay type: cell-based; set-up: host or cells: HEK 293 (recombinant, constitutively expressing; with mitochondrial photina in Assay B); details: percentage of maximal inhibition; HEK human P2X4 cells, Fluo-8 FLIPR; read-out: human P2X4 Assay A avg Efficacy
measurement_label: Emax (%)

- molecule: "NS(=O)(=O)c1cc(NC(=O)Cc2ccccc2Cl)ccc1Oc1ccc(N2CCCC2=O)cc1 [Example 043]"
  Emax [%]: 85
- molecule: "NS(=O)(=O)c1cc(NC(=O)Cc2ccccc2Cl)ccc1Oc1ccc(F)cc1 [Example 012]"
  Emax [%]: 70

I. COCCN(C)C(=O)c1cccc(CC(=O)Nc2ccc(Oc3cccc(Cl)c3)c(S(N)(=O)=O)c2)c1 [Example 208]
II. NS(=O)(=O)c1cc(NC(=O)Cc2ccccc2Cl)ccc1OCC1(O)CCCCC1 [Example 288]
# query: argmin of Emax over I and II Please indicate the selected item by its label.
II
(II: 57%, I: 87%)

* * *

Target: mouse P2X4 receptors (Mus musculus, UniProt Q9JJX6)
Construct: host or cells: HEK 293 (recombinant, constitutively expressing)
Sequence (Q9JJX6 1-388): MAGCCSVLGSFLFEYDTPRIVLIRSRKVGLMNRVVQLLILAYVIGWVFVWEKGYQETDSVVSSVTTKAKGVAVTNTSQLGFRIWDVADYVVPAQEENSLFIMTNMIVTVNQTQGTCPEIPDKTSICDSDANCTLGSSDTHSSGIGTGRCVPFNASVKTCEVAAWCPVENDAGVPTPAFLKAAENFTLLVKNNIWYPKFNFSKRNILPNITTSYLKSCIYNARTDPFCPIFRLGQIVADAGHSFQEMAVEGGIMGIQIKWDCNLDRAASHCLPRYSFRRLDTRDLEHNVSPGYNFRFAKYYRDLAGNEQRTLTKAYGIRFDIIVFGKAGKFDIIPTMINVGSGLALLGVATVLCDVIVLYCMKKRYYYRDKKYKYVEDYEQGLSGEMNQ
Assay: Assay B: mouse P2X4 receptor cell line, Fluo8 fluorescence FLIPR (agonist Bz-ATP at EC50)
Type: cell-based
Conditions: HEK mouse P2X4 cell line, agonist Bz-ATP at EC50, average
measurement_label: mouse P2X4 Assay B avg Efficacy (%)

Use these answered entries as a reference point.
- compound: "CC(C)(O)c1ccccc1Oc1ccc(NC(=O)Cc2ccccc2Cl)cc1S(N)(=O)=O"
  uom: "%"
  mouse P2X4 Assay B avg Efficacy: 44
- compound: "NS(=O)(=O)c1cc(NC(=O)Cc2ccccc2Cl)ccc1Oc1cnc(Cl)c(Cl)c1"
  uom: "%"
  mouse P2X4 Assay B avg Efficacy: 15
- compound: "NS(=O)(=O)c1cc(NC(=O)Cc2ccc(C(F)(F)F)cc2)ccc1OCc1ccccn1"
  uom: "%"
  mouse P2X4 Assay B avg Efficacy: 35
- compound: "NS(=O)(=O)c1cc(NC(=O)Cc2ccccc2Cl)ccc1OCc1ccccc1"
  uom: "%"
  mouse P2X4 Assay B avg Efficacy: 66
- compound: "Cc1cc(NC(=O)Cc2ccccc2)cc(S(N)(=O)=O)c1Oc1cccc(Cl)c1"
  uom: "%"
  mouse P2X4 Assay B avg Efficacy: 31
- compound: "NS(=O)(=O)c1cc(NC(=O)Cc2ccccc2Cl)ccc1OCc1cccc(Cl)c1"
  uom: "%"
  mouse P2X4 Assay B avg Efficacy: 52
- compound: "NS(=O)(=O)c1cc(NC(=O)Cc2ccccc2Cl)ccc1OCC1CCCC1"
  uom: "%"
  mouse P2X4 Assay B avg Efficacy: 62
- compound: "NC(=O)c1cccc(Oc2ccc(NC(=O)Cc3ccccc3Cl)cc2S(N)(=O)=O)c1"
  uom: "%"
  mouse P2X4 Assay B avg Efficacy: 44

I. NS(=O)(=O)c1cc(NC(=O)Cc2ccccc2)ccc1OCc1ccccc1
II. NS(=O)(=O)c1cc(NC(=O)Cc2ccccc2Cl)ccc1OCc1ccccc1F
III. NS(=O)(=O)c1cc(NC(=O)Cc2ccccc2Cl)ccc1OC1CCOCC1
IV. Cc1cc(NC(=O)Cc2ccccc2Cl)cc(S(N)(=O)=O)c1Oc1cccc(Cl)c1
In this exercise, place the 4 compounds in ascending sequence of their recorded mouse P2X4 Assay B avg Efficacy. Put the labels in the order asked and list them.
I, III, IV, II

* * *

molecular target: P2X4 (Homo sapiens); assay: Assay B: human P2X4 receptor cell line, mitochondrial photina luminescence (agonist Bz-ATP at EC50); format: cell-based; parameters: host or cells: HEK 293 (recombinant, constitutively expressing; with mitochondrial photina in Assay B); conditions: HEK human P2X4 cell line, photina luminescence, agonist Bz-ATP at EC50, average; read-out: human P2X4 Assay B avg Efficacy
measurement_label: Emax (%)

- compound_structure_string: "N#Cc1cc(Cl)cc(Oc2ccc(NC(=O)Cc3ccccc3Cl)cc2S(N)(=O)=O)c1"
  measurement_label: "Emax"
  uom: "%"
  quantitative_result: 61
- compound_structure_string: "NS(=O)(=O)c1cc(NC(=O)Cc2ccccc2Cl)ccc1OCc1ccccc1"
  measurement_label: "Emax"
  uom: "%"
  quantitative_result: 69
- compound_structure_string: "NS(=O)(=O)c1cc(NC(=O)Cc2ccccc2Cl)ccc1Oc1cccc(OC(F)F)c1"
  measurement_label: "Emax"
  uom: "%"
  quantitative_result: 57
- compound_structure_string: "Cc1ccc(C#N)cc1Oc1ccc(NC(=O)Cc2ccccc2Cl)cc1S(N)(=O)=O"
  measurement_label: "Emax"
  uom: "%"
  quantitative_result: 71
- compound_structure_string: "NS(=O)(=O)c1cc(NC(=O)Cc2ccccc2Cl)ccc1Oc1ncccc1Cl"
  measurement_label: "Emax"
  uom: "%"
  quantitative_result: 74
- compound_structure_string: "NS(=O)(=O)c1cc(NC(=O)Cc2cccc(OCCO)c2)ccc1Oc1cccc(Cl)c1"
  measurement_label: "Emax"
  uom: "%"
  quantitative_result: 85
- compound_structure_string: "NS(=O)(=O)c1cc(NC(=O)Cc2ccccc2Cl)ccc1Oc1ccc2c(c1)OCO2"
  measurement_label: "Emax"
  uom: "%"
  quantitative_result: 91
- compound_structure_string: "COc1ccccc1CC(=O)Nc1ccc(Oc2cccc(Cl)c2)c(S(N)(=O)=O)c1"
  measurement_label: "Emax"
  uom: "%"
  quantitative_result: 68
